Biological target: Fibroblast growth factor 10 (Homo sapiens) (UniProt O15520)
Sequence (O15520 whole entry, looked up): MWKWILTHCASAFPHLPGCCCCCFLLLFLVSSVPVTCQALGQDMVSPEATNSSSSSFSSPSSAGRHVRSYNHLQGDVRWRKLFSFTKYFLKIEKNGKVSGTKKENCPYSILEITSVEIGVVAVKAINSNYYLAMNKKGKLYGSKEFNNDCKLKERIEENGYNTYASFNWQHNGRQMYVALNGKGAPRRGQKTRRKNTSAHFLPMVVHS
Experiment: FGF10 binders on small-molecule microarrays, primary screen, biochemical, small-molecule microarray, 635 nm fluorescence (AID 1102)
Settings: FGF10 binding, fluorescence 635 nm, higher = more signal
quantity: composite z-score
Lab note: jot the number down without any unit.

Response field composite z-score (Fibroblast growth factor 10 (Homo sapiens) (UniProt O15520)) for item C=C(COC)/C(=C/C[C@H](OC(C)=O)c1ccc(OCCO)cc1)c1cc(C(=O)OC)ccc1OC : 1.48

Response field composite z-score (Fibroblast growth factor 10 (Homo sapiens) (UniProt O15520)) for item NC(=O)N1C(=O)C2C(C1=O)C1C=C(CCCO)C2C(c2cccs2)N1Cc1cccc(OC(F)(F)F)c1 (stereo not given) : 0.493

Response field composite z-score (Fibroblast growth factor 10 (Homo sapiens) (UniProt O15520)) for item [N-]=[N+]=NCc1ccccc1C[C@@]1(C(=O)N2CCCCC2)N=C(c2ccc(OCCCO)cc2)O[C@@H]1c1ccccc1 : 0.384

Response field composite z-score (Fibroblast growth factor 10 (Homo sapiens) (UniProt O15520)) for item COCCOC(=O)N1C(=O)[C@@]2(c3cc(C#CC4=CCCCC4)ccc31)[C@H](C(=O)N1CCCCCCC1)[C@H]1C(=O)O[C@H](c3ccccc3)[C@H](c3ccccc3)N1[C@@H]2c1ccc(O)cc1 : 0.277

Response field composite z-score (Fibroblast growth factor 10 (Homo sapiens) (UniProt O15520)) for item C=C(COC)C(=O)CC[C@@H](OC(=O)c1cccnc1)c1ccc(OCCO)cc1 : 1.55

Response field composite z-score (Fibroblast growth factor 10 (Homo sapiens) (UniProt O15520)) for item O=C(CS)NCCCCCNC(=O)[C@@H]1C[C@@H]2C(=O)N3CCC[C@H]3C(=O)N2[C@@H]1c1cccc(OCCO)c1 : 0.453

Response field composite z-score (Fibroblast growth factor 10 (Homo sapiens) (UniProt O15520)) for item CCCCCCc1nc(-c2cc(C)c(OC)c(C)c2)c(C)c2c1[Si](C(C)C)(C(C)C)OC2 : -0.722

Response field composite z-score (Fibroblast growth factor 10 (Homo sapiens) (UniProt O15520)) for item C=CCC(OC(C)=O)[C@@H]1[C@@H](N(Cc2cccc3ccccc23)C(=O)c2cccc3ccccc23)c2cc(OCCCO)ccc2N1C(=O)c1ccc(-c2ccccc2)cc1 (stereo not given in full) : 0.0819

Response field composite z-score (Fibroblast growth factor 10 (Homo sapiens) (UniProt O15520)) for item CCOC(=O)C1=CC[C@@H](c2cccc(Cl)c2)N(S(=O)(=O)c2ccc(C)cc2)C1 : 0.674

Response field composite z-score (Fibroblast growth factor 10 (Homo sapiens) (UniProt O15520)) for item O=C1C=C(c2ccccc2)C(=O)c2ccc([C@H]3Oc4ccccc4S(=O)(=O)N4CCC[C@@H]34)cc21 : -0.101

Response field composite z-score (Fibroblast growth factor 10 (Homo sapiens) (UniProt O15520)) for item CCC(CC)C(O)C1C=CC2C(=O)N(c3ccccc3)C(=O)C2N1Nc1ccc(C(C)C)cc1 (stereo not given) : 0.663

Response field composite z-score (Fibroblast growth factor 10 (Homo sapiens) (UniProt O15520)) for item Cn1cccc1C(O)C1C=CC2C(=O)NC(=O)C2N1Nc1ccc(Cl)cc1Cl (stereo not given) : 0.914

Response field composite z-score (Fibroblast growth factor 10 (Homo sapiens) (UniProt O15520)) for item COC(=O)[C@@]1(Cc2ccccc2)[C@H]2c3cc(C(=O)N(C)C)n(CCc4ccc(O)c(OC)c4)c3C[C@H]2CN1C(=O)c1ccccc1 : 0.626

Response field composite z-score (Fibroblast growth factor 10 (Homo sapiens) (UniProt O15520)) for item [N-]=[N+]=Nc1ccccc1C[C@]1(C(=O)N2CCOCC2)N=C(c2ccc(OCCCO)cc2)O[C@H]1c1ccccc1 : 1.16

Response field composite z-score (Fibroblast growth factor 10 (Homo sapiens) (UniProt O15520)) for item COc1ccc(NC(=O)O[C@H]2[C@H](OC(=O)Nc3ccccc3)[C@@H](OC(=O)Nc3ccccc3)[C@@H](OC)O[C@@H]2CO)cc1 : 1.5

All values here come from PubChem BioAssay.
